Measured values drawn from ChEMBL document CHEMBL3860109 for this set.

- MEASURED ON: UniProt:P00915
- Sequence (P00915 whole entry): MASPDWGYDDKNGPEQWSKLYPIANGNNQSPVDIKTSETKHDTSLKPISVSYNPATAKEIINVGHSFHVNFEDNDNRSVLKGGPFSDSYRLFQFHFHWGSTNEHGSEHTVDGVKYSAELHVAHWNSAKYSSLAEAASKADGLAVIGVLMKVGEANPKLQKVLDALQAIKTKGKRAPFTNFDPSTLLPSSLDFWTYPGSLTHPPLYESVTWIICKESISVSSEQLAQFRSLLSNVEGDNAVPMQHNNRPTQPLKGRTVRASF
MEASURED ATTRIBUTE: Ki (nM)

>>> measurement("NS(=O)(=O)c1ccc(-n2cc(-c3ccccc3)nn2)cc1")
342

###

- MEASURED ON: Carbonic anhydrase 9 (Homo sapiens, UniProt Q16790)
Could you please mark rule met for values of Ki below 9 nM and rule not met for values at or above it?

>>> discrete_label("NS(=O)(=O)c1ccc(OCc2cn(-c3ccc(F)cc3)nn2)cc1")
"rule not met"
>>> discrete_label("NS(=O)(=O)c1ccc(-n2cc(COc3cccnc3)nn2)cc1")
"rule not met"
>>> discrete_label("COc1cccc(OCc2cn(-c3ccc(S(N)(=O)=O)cc3)nn2)c1")
"rule not met"
>>> discrete_label("NS(=O)(=O)c1ccc(-n2cc(COc3ccccc3)nn2)cc1")
"rule met"
>>> discrete_label("NS(=O)(=O)c1ccc(-n2cc(CNc3ccccc3)nn2)cc1")
"rule met"
>>> discrete_label("Cc1cccc(OCc2cn(-c3ccc(S(N)(=O)=O)cc3)nn2)c1")
"rule met"
>>> discrete_label("NS(=O)(=O)c1ccc(OCc2cn(-c3ccccc3)nn2)cc1")
"rule met"
